assay: Plasma pharmacokinetics of CMS and colistin after multi-dose intravenous infusions of CMS; conditions: human, plasma, iv, 2.5 mg/kg CBA, Cmax, Day 1 (first dose); healthy Chinese subjects, CMS 2.5 mg/kg CBA i.v. infusion 90 min; plasma, UPLC-MS/MS; non-compartment model; mean ± SD, n = 12; SD
Positions of bridges follow the written chain, without caps; N, C: chain ends. Non-standard residues stand in square brackets, D forms with d. Residues, ends and D or L forms follow the SMILES beside them. *: point of attachment. X1 = CC[C@H](C)CCCCC(=O)*; Dab = NCC[C@H](N)C(=O)O
recorded_endpoint: Cmax (ng/mL)

molecule	value_measured
CC[C@H](C)CCCCC(=O)N[C@@H](CCN)C(=O)N[C@H](C(=O)N[C@@H](CCN)C(=O)N[C@H]1CCNC(=O)[C@H]([C@@H](C)O)NC(=O)[C@H](CCN)NC(=O)[C@H](CCN)NC(=O)[C@H](CC(C)C)NC(=O)[C@@H](CC(C)C)NC(=O)[C@H](CCN)NC1=O)[C@@H](C)O [colistin] (X1-[Dab]T[Dab][Dab][Dab][dL]L[Dab][Dab]T; lactam 4-C)	1170
